Where do the numbers come from? From patent US20170044259A1.

target: human PD-1-Fc (R and D systems, Minneapolis, Minn.) (human, UniProt Q15116 25-167); test: inhibition ELISA; hPDL-1 Fc blockade
Sequence (Q15116 25-167): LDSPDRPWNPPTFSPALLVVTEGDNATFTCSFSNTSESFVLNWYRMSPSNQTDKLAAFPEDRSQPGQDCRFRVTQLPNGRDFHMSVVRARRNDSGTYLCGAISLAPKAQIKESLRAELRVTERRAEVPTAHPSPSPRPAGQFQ
testReadout: IC50 (nM)
Form entry: value (nM) — number only.

Solved cases (2 shown):
[
  {
    "binder": "D4 (antibody, V domains shown) VH: EVQLVESGGGLVQPGGSLRLSCAHSGFSFSSYDMSWVRQAPGKGLEWVATISGGGRYTYYADSVKGRFTISRDNSKNTLYLQMNSLRAEDTAVYYCASNYYGFDYWGQGTLLTVSS VL: DIQMTQSPSSLSASVGDRVTITCKASQDVGTAVAWYQQKPGKAPKLLIYWASTRHTGVPSRFSGSGSGTDFTLTISSVQPEDFATYYCQQYSSYPWTFGQGTKLEIKR",
    "IC50 (nM)": 2.72
  },
  {
    "binder": "Ba2 (antibody, V domains shown) VH: QVQLVQSGAEVKKPGASVKMSCKASGYTFTDYYMDWVRQAPGQGLEWIGYIYPKNGGSSYAQKFQGRATLTVDTSTSTAYMELSSLRSEDTAVYYCARKVVATDYWGQGTLLTVSS VL: DIQMTQSPSSLSASVGDRVTMTCKSSQSLLYSSNQKNYLAWYQQKPGKAPKLLIFWASIRESGVPSRFSGSGSGTDFTLTISSVQPEDFATYYCQQSDSYPWTFGQGTKLEIKR",
    "IC50 (nM)": 2.2
  }
]

Provide one value: measured IC50 of Bb2 (antibody, V domains shown) VH: QVQLVQSGAEVKKPGASVKMSCKASGYTFTDYYMDWVRQAPGQGLEWIGYIYPKNGGSSYAQKFQGRATLTVDKSTSTAYMELSSLRSEDTAVYYCARKVVATDYWGQGTLLTVSS VL: DIQMTQSPSSLSASVGDRVTMTCKSSQSLLYSSNQKNYLAWYQQKPGKAPKLLIFWASIRESGVPSRFSGSGSGTDFTLTISSVQPEDFATYYCQQSDSYPWTFGQGTKLEIKR
1.67

Provide one value: measured IC50 of C1.1 (antibody, V domains shown) VH: EVQLVESGGGLVQPGGSLRLSCAASGFTFSNYAMSWVRQAPGKGLEWVAYISNGGGDTHYADSLKGRFTVSRDNSKNTLYLQMNSLRAEDTAVYYCARENYGTSPFVYWGQGTLVTVSS VL: DIQLTQSPSSLSVSVGDRATITCRASESVDNYGISFMNWFQQKPGKAPKLLIYAASNQGSGVPSRFSGSGSGTDFTLTISSMQPEDFATYYCQQSKDVPWTFGQGTKLEIKR
1.32
